A collection of molecules and their measured Total Cell Count
- System: Fibroblast
- ASSAY_NOTES: Multiplex assay against human fibroblast
- Format: toxicity, cell-based
- COND: 12 h, 1 µM, compound concentration 1 uM, replicate 2
The response must contain the number and no unit.

The examples below pair each entry with its known result.
[[record]]
molecule = "CCOc1c2c(c(OCC)c3ncccc13)CN(c1ccc(CS(=O)(=O)NC(=O)Cc3ccccc3OC)cc1C)C2=O"
measured_metric = "Total Cell Count"
reported = 111

[[record]]
molecule = "CC(=O)NCCc1c(Cc2ccccc2)[nH]c2ccccc12 [LUZINDOLE]"
measured_metric = "Total Cell Count"
reported = 134

[[record]]
molecule = "COc1cc(C(=O)N(CCCc2ccccc2)Cc2ccc(CC(=O)O)cc2)cc(OC)c1C"
measured_metric = "Total Cell Count"
reported = 176

[[record]]
molecule = "COc1ccc2c(c1)C(C(=O)N(Cc1ccc(N(C)C)cc1)c1ccc(C(C)C)cc1)CCC2.Cl (stereo not given)"
measured_metric = "Total Cell Count"
reported = 138


(Q) Item CSCC[C@H](NC=O)C(=O)N[C@@H](CC(C)C)C(=O)N[C@@H](Cc1ccccc1)C(=O)O has what recorded Total Cell Count?
(A) 175

====

- System: HEK-293T
- ASSAY_NOTES: Multiplex assay against HEK293T
- Format: toxicity, cell-based
- COND: human, 12 h, 1 µM, compound concentration 1 uM, replicate 2
MEASURED_METRIC: Population Tubulin-Different-Phenotype (%)
Your answer is read as %, so omit the unit and give the number.

The examples below pair each entry with its known result.
[[record]]
compound = "CSc1ccccc1N1CCN(CCCCCC(=O)NC2CCCc3ccccc32)CC1.Cl (stereo not drawn)"
reported = 43

[[record]]
compound = "Cc1ccccc1C(=O)Nc1ccc(C(=O)N2CCCC(N(C)C)c3ccccc32)cc1.Cl (stereo not drawn)"
reported = 29

[[record]]
compound = "N[C@@]1(C(=O)O)CO[C@H]2[C@H](C(=O)O)[C@H]21"
reported = 18

[[record]]
compound = "Cl.Clc1ccc2nsnc2c1NC1=NCCN1 [TIZANIDINE HYDROCHLORIDE]"
reported = 20

[[record]]
compound = "CCCn1c(=O)c2[nH]c(C3CCCC3)nc2n(CCC)c1=O"
reported = 15


(Q) Item N#Cc1c(N)nc(SCc2csc(-c3ccc(Cl)cc3)n2)c(C#N)c1-c1ccc(OCCO)cc1 has what recorded Population Tubulin-Different-Phenotype (%)?
(A) 34

(Q) Now consider CNC[C@H](O)c1ccc(O)c(O)c1 [EPINEPHRINE] and answer again.
(A) 27

(Q) Now consider COc1cc(NC(=O)CCN2CCC(OC(=O)Nc3ccccc3-c3ccccc3)CC2)c(Cl)cc1CNC[C@H](O)c1ccc(O)c2[nH]c(=O)ccc12 and answer again.
(A) 41

====

A collection of molecules and their measured Population Hoechst High Intensity Objects (%)
- Tested on: U2OS
- ASSAY_NOTES: Multiplex assay against U2OS
- Type: toxicity, cell-based
- COND: human, 12 h, 1 µM, compound concentration 1 uM, replicate 2
Your answer is read as %, so omit the unit and give the number.

[[record]]
molecule = "O=C(O)Cc1ccccc1Nc1c(Cl)cccc1Cl [DICLOFENAC]"
reported = 0

[[record]]
molecule = "CSc1ccccc1N1CCN(CCCCCC(=O)NC2CCCc3ccccc32)CC1.Cl (configuration not stated)"
reported = 3

[[record]]
molecule = "CCOc1c2c(c(OCC)c3ncccc13)CN(c1ccc(CS(=O)(=O)NC(=O)Cc3ccccc3OC)cc1C)C2=O"
reported = 1


(Q) Item Cc1nc2ccc(Oc3ccc(F)cc3)cc2c(=O)n1C[C@H]1CCCN(C(C)C)C1.Cl has what recorded Population Hoechst High Intensity Objects (%)?
(A) 1

(Q) Now consider CN1CCN(c2nc3cc(C(F)(F)F)ccc3n3cccc23)CC1.O=C(O)/C=C\C(=O)O.O=C(O)/C=C\C(=O)O and answer again.
(A) 0

(Q) Now consider O=S(=O)(c1ccccc1)c1cnc2c(N3CCNCC3)cccc2c1 [INTEPIRDINE] and answer again.
(A) 0

(Q) Now consider Cc1ccc(/C(=C\CN2CCCC2)c2ccccn2)cc1 [TRIPROLIDINE] and answer again.
(A) 3

(Q) Now consider CCCC(CCC)C(=O)O [VALPROIC ACID] and answer again.
(A) 2

(Q) Now consider c1cc(OCCCN2CCCCC2)ccc1CN1CCCCC1 [JNJ-5207852] and answer again.
(A) 0

(Q) Now consider N#Cc1c(N)nc(SCc2csc(-c3ccc(Cl)cc3)n2)c(C#N)c1-c1ccc(OCCO)cc1 [CAPADENOSON] and answer again.
(A) 1

(Q) Now consider CN(C)CCCc1cc(C(=O)Nc2ccc(-c3ccncc3)cc2)ccc1O.Cl.Cl and answer again.
(A) 0

(Q) Now consider CCCn1c(=O)c2[nH]c(C3CCCC3)nc2n(CCC)c1=O and answer again.
(A) 0

====

- System: U2OS
- ASSAY_NOTES: Multiplex assay against U2OS
- Format: toxicity, cell-based
- COND: human, 12 h, 1 µM, compound concentration 1 uM, replicate 2
A collection of molecules and their measured Population Mitotic Cells (%)
Your answer is read as %, so omit the unit and give the number.

[[record]]
molecule = "CNC[C@H](O)c1ccc(O)c(O)c1 [EPINEPHRINE]"
target_or_test_system = "U2OS"
reported = 20


# ---- query molecule ----
(Q) Item COc1c(C)cc(NC(=O)c2nn(Cc3ccc(F)cc3)c3c2CN(C(=O)c2ccc[nH]2)C[C@]3(C)C(N)=O)cc1C has what recorded Population Mitotic Cells (%)?
(A) 16

====

A collection of molecules and their measured Total Cell Count
- Tested on: Fibroblast
- ASSAY_NOTES: Multiplex assay against human fibroblast
- Type: toxicity, cell-based
- COND: 24 h, 1 µM, compound concentration 1 uM, replicate 1
The response must contain the number and no unit.

The examples below pair each entry with its known result.
[[record]]
molecule = "CC[C@H]1OC(=O)[C@H](C)[C@@H](O[C@H]2C[C@@](C)(OC)[C@@H](O)[C@H](C)O2)[C@H](C)[C@@H](O[C@@H]2O[C@H](C)C[C@H](N(C)C)[C@H]2O)[C@@]2(C)CC(C)=C(O2)[C@H](C)[C@@H](O)[C@]1(C)O"
reported = 173

[[record]]
molecule = "N[C@@]1(C(=O)O)CO[C@H]2[C@H](C(=O)O)[C@H]21 [LY-379268]"
reported = 152

[[record]]
molecule = "CCCN1CCC[C@@H]2Cc3n[nH]cc3C[C@H]21.Cl [QUINPIROLE HYDROCHLORIDE]"
reported = 172

[[record]]
molecule = "Cc1ccccc1C(=O)Nc1ccc(C(=O)N2CCCC(N(C)C)c3ccccc32)cc1.Cl (configuration not stated)"
reported = 160

[[record]]
molecule = "CC(=O)NCCc1c(Cc2ccccc2)[nH]c2ccccc12 [LUZINDOLE]"
reported = 134


(Q) Please state recorded Total Cell Count (tested on Fibroblast) of CN(C)CCCc1cc(C(=O)Nc2ccc(-c3ccncc3)cc2)ccc1O.Cl.Cl
(A) 119

(Q) Now consider N#Cc1c(N)nc(SCc2csc(-c3ccc(Cl)cc3)n2)c(C#N)c1-c1ccc(OCCO)cc1 [CAPADENOSON] and answer again.
(A) 139

(Q) Now consider COc1c(C)cc(NC(=O)c2nn(Cc3ccc(F)cc3)c3c2CN(C(=O)c2ccc[nH]2)C[C@]3(C)C(N)=O)cc1C and answer again.
(A) 96

(Q) Now consider c1cc(OCCCN2CCCCC2)ccc1CN1CCCCC1 [JNJ-5207852] and answer again.
(A) 176

(Q) Now consider CN1CCN(c2nc3cc(C(F)(F)F)ccc3n3cccc23)CC1.O=C(O)/C=C\C(=O)O.O=C(O)/C=C\C(=O)O and answer again.
(A) 142

(Q) Now consider Cc1ccc(C(C)(O)c2nc3ccccc3s2)c(C)c1 (configuration not stated) and answer again.
(A) 139

(Q) Now consider COc1cc(NC(=O)CCN2CCC(OC(=O)Nc3ccccc3-c3ccccc3)CC2)c(Cl)cc1CNC[C@H](O)c1ccc(O)c2[nH]c(=O)ccc12 [BATEFENTEROL] and answer again.
(A) 174

(Q) Now consider CN1CCN2c3ncccc3Cc3ccccc3C2C1 (configuration not stated) [MIRTAZAPINE] and answer again.
(A) 201

(Q) Now consider CSc1ccccc1N1CCN(CCCCCC(=O)NC2CCCc3ccccc32)CC1.Cl (configuration not stated) and answer again.
(A) 133

(Q) Now consider C[C@H]1[C@H]2CC[C@H]3[C@@H]4CC=C5C[C@@H](N(C)C)CC[C@]5(C)[C@H]4CC[C@]23CN1C [CONESSINE] and answer again.
(A) 175

(Q) Now consider CCCn1c(=O)c2[nH]c(C3CCCC3)nc2n(CCC)c1=O and answer again.
(A) 177

(Q) Now consider Cc1nc2ccc(Oc3ccc(F)cc3)cc2c(=O)n1C[C@H]1CCCN(C(C)C)C1.Cl and answer again.
(A) 186

(Q) Now consider CCNC1(C(N)=O)CCN(c2ncnc3c2nc(-c2ccccc2Cl)n3-c2ccc(Cl)cc2)CC1 [OTENABANT] and answer again.
(A) 154

(Q) Now consider CC(C)(C)c1ccc(S(=O)(=O)Nc2ccc(Cl)cc2C(=O)c2cc[n+]([O-])cc2)cc1 [VERCIRNON] and answer again.
(A) 141

(Q) Now consider COc1ccc2c(c1)C(C(=O)N(Cc1ccc(N(C)C)cc1)c1ccc(C(C)C)cc1)CCC2.Cl (configuration not stated) and answer again.
(A) 156

(Q) Now consider CN(C)c1ccnc2sc3c(=O)n(N4CCCCCC4)cnc3c12 and answer again.
(A) 143

(Q) Now consider O=C1COc2nccc(-c3ccccc3F)c2CN1Cc1cc(C(F)(F)F)cc(C(F)(F)F)c1 and answer again.
(A) 203

(Q) Now consider Cc1ccc(/C(=C\CN2CCCC2)c2ccccn2)cc1 [TRIPROLIDINE] and answer again.
(A) 128
